The reported numbers originate from ChEMBL document CHEMBL3259663.

# Measured On: Sodium- and chloride-dependent glycine transporter 2 (Homo sapiens, UniProt Q9Y345)
# Sequence (Q9Y345 whole entry): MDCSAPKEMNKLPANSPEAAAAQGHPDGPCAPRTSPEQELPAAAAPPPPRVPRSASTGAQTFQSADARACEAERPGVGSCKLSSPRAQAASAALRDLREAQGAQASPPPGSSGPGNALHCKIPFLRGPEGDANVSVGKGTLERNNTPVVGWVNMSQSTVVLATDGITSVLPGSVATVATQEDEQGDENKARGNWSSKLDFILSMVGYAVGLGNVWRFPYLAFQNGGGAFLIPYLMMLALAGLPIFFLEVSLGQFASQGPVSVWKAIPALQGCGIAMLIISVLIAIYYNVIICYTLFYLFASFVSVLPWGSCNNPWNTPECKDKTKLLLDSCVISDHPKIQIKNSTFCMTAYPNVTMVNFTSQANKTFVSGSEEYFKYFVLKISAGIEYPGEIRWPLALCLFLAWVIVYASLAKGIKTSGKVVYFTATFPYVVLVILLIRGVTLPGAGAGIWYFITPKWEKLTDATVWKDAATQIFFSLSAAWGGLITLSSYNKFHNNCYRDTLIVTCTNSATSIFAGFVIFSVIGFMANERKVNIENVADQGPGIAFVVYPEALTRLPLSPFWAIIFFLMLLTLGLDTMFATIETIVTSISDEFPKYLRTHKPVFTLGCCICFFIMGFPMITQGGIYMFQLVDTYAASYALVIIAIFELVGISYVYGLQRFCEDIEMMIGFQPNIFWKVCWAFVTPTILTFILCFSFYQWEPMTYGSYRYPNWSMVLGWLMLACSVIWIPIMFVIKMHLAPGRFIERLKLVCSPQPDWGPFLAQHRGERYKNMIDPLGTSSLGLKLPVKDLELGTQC
# Assay Info: Inhibition of human GlyT2 expressed in cells assessed as [3H]glycine uptake
Endpoint Label: pEC50
pEC50 is defined as minus the log10 of a concentration measured in mol/L.

Enquiry: Item COc1cc(C(F)(F)F)cc(SC)c1C(=O)N[C@@]1(c2ccccc2)CCCN(C)C1 has what recorded pEC50?
Return: 4.82

###

# Assay Info: Ratio of drug level from brain to plasma rat at 10 mg/kg, po
# Format: ADME, organism-based
# Parameters: dose 10 mg/kg, route oral
# Test Conditions: brain and plasma, read-out: BPR
Endpoint Label: Kp
Form field (numeric): enter value without unit.

Enquiry: Consider the compound shown here: COc1cc(C(F)(F)F)cc(SC)c1C(=O)N[C@@]1(c2ccccc2)CCCN(C)C1 What is its recorded Kp?
Return: 0.08

###

# Assay Info: Solubility of the compound at pH 6.5 by lyophilization solubility assay
# Assay type: physicochemical
# Test Conditions: buffer
Endpoint Label: solubility
Remember to quote the unit after the number.

Enquiry: Can you look up the measured solubility of COc1cc(C(F)(F)F)cc(SC)c1C(=O)N[C@@]1(c2ccccc2)CCCN(C)C1 for me?
Return: 147 µg/mL

###

# Measured On: Sodium- and chloride-dependent glycine transporter 1 (Homo sapiens)
# Sequence (P48067 whole entry): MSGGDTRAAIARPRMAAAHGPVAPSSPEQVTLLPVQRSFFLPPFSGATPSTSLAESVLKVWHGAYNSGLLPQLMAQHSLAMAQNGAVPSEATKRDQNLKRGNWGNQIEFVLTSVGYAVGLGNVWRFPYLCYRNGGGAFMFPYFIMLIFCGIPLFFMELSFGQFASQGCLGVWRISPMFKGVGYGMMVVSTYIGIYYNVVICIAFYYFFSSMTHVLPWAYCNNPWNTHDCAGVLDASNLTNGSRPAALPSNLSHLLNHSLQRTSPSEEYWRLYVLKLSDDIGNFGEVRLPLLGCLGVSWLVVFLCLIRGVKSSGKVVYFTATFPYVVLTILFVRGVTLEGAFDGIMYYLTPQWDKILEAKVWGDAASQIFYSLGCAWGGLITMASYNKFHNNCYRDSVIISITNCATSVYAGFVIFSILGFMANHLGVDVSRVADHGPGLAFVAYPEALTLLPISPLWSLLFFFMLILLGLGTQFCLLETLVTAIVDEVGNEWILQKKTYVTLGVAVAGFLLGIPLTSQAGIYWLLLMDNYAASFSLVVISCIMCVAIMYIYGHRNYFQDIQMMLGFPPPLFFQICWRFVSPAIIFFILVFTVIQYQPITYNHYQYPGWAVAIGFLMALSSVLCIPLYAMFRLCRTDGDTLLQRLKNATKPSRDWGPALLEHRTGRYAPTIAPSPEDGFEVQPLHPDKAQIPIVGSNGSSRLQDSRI
# Assay Info: Inhibition of human GlyT1 expressed in cells assessed as [3H]glycine uptake
Endpoint Label: log10 of EC50 (log10 of the value in nM)
Quick note: numbers are log10 of EC50, with nM as the unit.

Example results:
{"Compound": "CCN1CCCC(NC(=O)c2c(OC)cc(C(F)(F)F)cc2C(F)(F)F)(c2ccccc2)C1 (racemic)", "Recorded Result": 2.36}
{"Compound": "COc1ccc(C2(NC(=O)c3c(OC)cc(C(F)(F)F)cc3SC)CCCN(C)C2)cc1 (racemic)", "Recorded Result": 2.23}
{"Compound": "COc1cc(C(F)(F)F)cc(SC)c1C(=O)NC1(c2ccc(F)cn2)CCCN(C)C1 (racemic)", "Recorded Result": 2.26}
{"Compound": "COc1cc(C(F)(F)F)cc(SC)c1C(=O)NC1(c2cccnc2)CCCN(C)C1 (racemic)", "Recorded Result": 1.73}

Enquiry: Any idea what log10 of EC50 was measured for COc1cc(C(F)(F)F)cc(C(F)(F)F)c1C(=O)NC1(c2ccccc2)CCCN(C(C)C)C1 (racemic) ?
Return: 2.36

Enquiry: What value of log10 of EC50 has been reported for the following compound? COc1cccc(C2(NC(=O)c3c(OC)cc(C(F)(F)F)cc3SC)CCCN(C)C2)c1 (racemic)
Return: 2.04

Enquiry: Return reported log10 of EC50; argument: CN1CCCC(NC(=O)c2ccc(C(F)(F)F)cc2C(F)(F)F)(c2ccccc2)C1 (racemic)
Return: 2.73

Enquiry: log10 of EC50 for COc1cc(C(F)(F)F)cc(C(F)(F)F)c1C(=O)NC1(c2ccccc2)CCCNC1 (racemic) ?
Return: 2.82

Enquiry: GET /values?readout=log10 of EC50&item= COc1cc(C(F)(F)F)cc(C(F)(F)F)c1C(=O)NC1(c2ccccc2)CCCN(C2CCCC2)C1 (racemic)
Return: 2.43
